Attribution: patent USRE30886E

protocol.notes: Acute toxicity (LD50) in mice
Format: in vivo
settings: mouse, in vivo, oral administration

# structure, LD50
rows = [
    ("OC[C@H]1NC[C@H](O)[C@@H](O)[C@@H]1O", "> 1200 mg/kg"),
]

====

protocol.notes: Acute toxicity (LD50) in mice
Type: in vivo
settings: mouse, in vivo, intravenous administration

# structure, LD50
rows = [
    ("OC[C@H]1NC[C@H](O)[C@@H](O)[C@@H]1O", "> 800 mg/kg"),
]
